Listing of entries alongside the reported Percent Effect.
# Tested on: Wolbachia pipientis
# method_summary: Anti-Wolbachia Cell-Based Screen
# Format: functional
# Set-up: scale not given: in the data most compounds retested in dose-response had high values
# condition_label: 5 µM
Hit rate of the full screen: of about 48,000 compounds, about 13,000 (27%) showed an effect of 50% or more. This is one part of the list.
Numbers only here, please. The scale is %.

Name the recorded Percent Effect of the item CC(C)(C)CCS(=O)(=O)NCCc1csc(N2CCCC2)n1 in your answer. -17.7

Please list Percent Effect recorded for the compound Cc1cccc(N2CCN(CCC(=O)NCc3nnc[nH]3)CC2)c1 -0.9949

Identify measured Percent Effect corresponding to Cc1ccc(NC(=O)CC2Cn3ncnc3NC2=O)cc1C (stereo not drawn) 101.1
